target: Streptavidin (Streptomyces avidinii) (UniProt P22629); test: streptavidin binders on small-molecule microarray, primary screen, artefact control for SMM compound annotation, biophysical, 635/667 nm fluorescence (AID 1147); settings: streptavidin binding, higher = more signal;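 note: signal reflects streptavidin binding to arrayed compounds as a control protein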
Sequence (P22629 whole entry, looked up): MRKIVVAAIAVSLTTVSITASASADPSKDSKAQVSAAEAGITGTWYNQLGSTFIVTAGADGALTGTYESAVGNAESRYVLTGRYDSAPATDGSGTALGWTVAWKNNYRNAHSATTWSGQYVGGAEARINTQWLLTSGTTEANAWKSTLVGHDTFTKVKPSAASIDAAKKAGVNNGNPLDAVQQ
EXPERIMENTAL_READOUT: composite z-score

In the examples that follow, each entry is paired with its recorded composite z-score.
CN(C)CCCC[C@@H]1NC(=O)[C@H]2C[C@@H](C(=O)NCCCCCCNC(=O)CS)[C@@H](c3cccc(OCCO)c3)N2C1=O | 0.0448
COC(=O)[C@@]1(Cc2ccc(OC)cc2)[C@H]2c3cc(C(=O)N(C)C)n(Cc4c(CO)[nH]cc(C)c4=O)c3C[C@H]2CN1C(=O)c1ccccc1 | 0.27
COCCOC(=O)N1C(=O)[C@@]2(c3cc(C#CC4=CCCCC4)ccc31)[C@H](c1ccc(O)cc1)N1[C@H](c3ccccc3)[C@H](c3ccccc3)OC(=O)[C@H]1[C@@H]2C(=O)N1CCc2cc(OC)c(OC)cc2C1 | 0.112
COC(=O)[C@@]1(Cc2ccc(F)cc2)[C@H]2c3cc(C(=O)N4CCCC4)n(CCc4c[nH]c5cc(F)ccc45)c3C[C@H]2CN1C(=O)c1ccccc1 | 1.12
CC[C@@H](O[Si](C#C[Si](C(C)C)(C(C)C)C(C)C)(C(C)C)C(C)C)c1cn([C@H](C)c2ccccc2)nn1 | 0.693

Items follow; give composite z-score for each.
1. C#CCN(C(=O)OC(C)(C)C)[C@H](CO)c1ccccc1
2. [N-]=[N+]=Nc1ccccc1C[C@]1(C(=O)N2CCCCC2)N=C(c2ccc(OCCCO)cc2)O[C@H]1c1ccccc1

[-0.314, 1.15]
